TARGET_OR_TEST_SYSTEM: Jak2 (UniProt O60674)
Sequence (O60674 whole entry, looked up): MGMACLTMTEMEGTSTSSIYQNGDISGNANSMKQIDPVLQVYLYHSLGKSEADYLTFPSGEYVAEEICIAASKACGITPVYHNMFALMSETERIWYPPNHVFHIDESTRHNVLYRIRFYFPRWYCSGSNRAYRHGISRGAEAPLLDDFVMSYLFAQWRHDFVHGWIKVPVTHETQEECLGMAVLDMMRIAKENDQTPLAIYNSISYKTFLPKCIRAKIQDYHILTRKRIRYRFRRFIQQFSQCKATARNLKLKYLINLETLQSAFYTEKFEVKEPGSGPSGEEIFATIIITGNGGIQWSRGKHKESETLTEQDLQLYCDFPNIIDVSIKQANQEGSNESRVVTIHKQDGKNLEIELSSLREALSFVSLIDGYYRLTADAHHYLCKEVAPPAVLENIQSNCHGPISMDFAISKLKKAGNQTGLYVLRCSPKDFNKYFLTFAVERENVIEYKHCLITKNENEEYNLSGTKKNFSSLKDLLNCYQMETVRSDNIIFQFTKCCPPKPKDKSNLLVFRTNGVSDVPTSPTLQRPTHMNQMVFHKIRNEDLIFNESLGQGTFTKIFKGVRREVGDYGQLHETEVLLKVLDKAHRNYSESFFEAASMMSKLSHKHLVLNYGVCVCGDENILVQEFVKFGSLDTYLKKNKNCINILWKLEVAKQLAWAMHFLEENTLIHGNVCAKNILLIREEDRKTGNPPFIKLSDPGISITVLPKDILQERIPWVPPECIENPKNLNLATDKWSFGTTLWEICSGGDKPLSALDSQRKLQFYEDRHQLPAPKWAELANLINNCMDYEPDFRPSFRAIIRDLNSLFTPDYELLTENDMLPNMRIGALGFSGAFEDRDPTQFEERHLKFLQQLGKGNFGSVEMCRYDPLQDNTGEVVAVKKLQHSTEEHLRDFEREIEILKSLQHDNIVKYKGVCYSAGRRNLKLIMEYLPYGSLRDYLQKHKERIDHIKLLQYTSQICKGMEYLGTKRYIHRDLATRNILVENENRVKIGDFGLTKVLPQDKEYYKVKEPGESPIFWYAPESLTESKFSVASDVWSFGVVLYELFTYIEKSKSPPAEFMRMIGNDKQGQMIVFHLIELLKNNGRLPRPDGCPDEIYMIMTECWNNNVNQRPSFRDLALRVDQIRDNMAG
ASSAY: phosphorylation enrichment, bacterial display (enrichment ratio); higher = better substrate or ligand; peptides without Tyr show the background;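 further: 11-residue human phosphosite peptides and single-mutation variants displayed on the E. coli surface, counted by deep sequencing, each peptide's frequency after selection divided by its frequency in the unselected input library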;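 further: frequency after pTyr selection over input frequency; kinase dosed for 20-30% of maximal phosphorylation in three min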
QUANTITY_NAME: phosphorylation enrichment
Keep the answer to the number alone.

Recorded results for 8 sequences are shown here.
FPQARYHWLVL [APTX_Y214_K211Q_YF] :: 1.28
IPGVEYLVSII [TNC_Y1775] :: 1.19
IQVDAYFSPIH [ADSL_Y432] :: 2.15
FSGLAYTMERS [GLUD1_Y512_H507Y_YF] :: 0.7
FTGNTYRVGDT [FN1_Y106_YF] :: 0.499
MKGEYYRYLAE [YWHAG_Y131_D129E] :: 1.42
YGSGNYNDFGN [HNRNPA2B1_Y300] :: 0.966
KHCEDYVFSFN [DSC1_Y846_C848F_YF] :: 1.04

Consider the sequence KEKLCYVAPDF [ACTA1_Y220_L223P] and give its measured phosphorylation enrichment.
1.18

Returns the measured phosphorylation enrichment for the input sequence. Input: DLDATYRPMYS [JUP_Y701_M697L]
0.588

Endpoint output: phosphorylation enrichment of RRIHRYRGHLW [VHL_Y112_S111R] . Value?
0.375

So what does the record say about phosphorylation enrichment for SEKISYVYMKR [SSX7_Y48_L43S] ?
0.964

Need phosphorylation enrichment, item MFKPMYALFRT [HUWE1_Y4078_N4075K]
0.704

What phosphorylation enrichment value was documented for this sequence, VGSIKYLKREW [KCNMA1_Y885_E884K] ?
0.61

I would be grateful if you could share the reported phosphorylation enrichment for VHLFAYDWISI [BEST1_Y227_G222V_YF] .
1.04

Any idea what phosphorylation enrichment was measured for VQQVIYATGAL [MYH7_Y422] ?
1.38

Values were extracted from the supplement of paper PMC10065799.
